Tested on: Eleusine indica (ELEIN)
assayRemarks: Post-emergence efficacy, Method A
Type: in vivo
conditionSummary: Eleusine indica, post-emergence, 312 h; Application Rate 500 g/Ha; evaluated after 13 days; Method A; read-out: Control of weed species after post-emergence application, ELEIN (100=total damage to plant; 0=no damage to plant)
// classify: if (pest or weed control at 500 g/ha < 50%) 1.0 else 0.0

compound | classAssignment
Cc1c[n+](CCC(=O)O)ncc1-c1ncccn1 [Compound A153] | 1.0
CC(CNS(=O)(=O)[O-])[n+]1ccc(-c2ncccn2)cn1 (stereo not drawn) [Compound A223] | 0.0
CC(C[n+]1ccc(-c2ncccn2)cn1)NS(=O)(=O)[O-] (stereo not drawn) [Compound A221] | 0.0
N[C@H](CC[n+]1ccc(-c2ncccn2)cn1)C(=O)O [Compound A207, 2,2,2-trifluoroacetate] | 0.0
Nc1cc(-c2cc[n+](CCS(=O)(=O)[O-])nc2)ncn1 [Compound A164] | 0.0
O=S(=O)([O-])N1CCCC1C[n+]1ccc(-c2ncccn2)cn1 (stereo not drawn) [Compound A222] | 0.0
Cc1cc(Cl)cnc1-c1cc[n+](CCC(=O)O)nc1 [Compound A156] | 1.0
O=C(O)CC[n+]1ccc(-c2ncc(C(F)(F)F)cc2Cl)cn1 [Compound A197] | 1.0
